- Subject of test: PDIA4 (Homo sapiens, UniProt P13667)
The following compounds are shown together with reported pIC50 values.
# pIC50 is unitless: minus log10 of the molar concentration; print number only

The examples below pair each entry with its known result.
- CC#CC#CC#CC#CCCC(O)CO (centres unmarked) [CPD P2, cytopiloyne aglycone, reference compound]: 3.77
- C#CC(=O)Nc1cc(OC)c(OCCCN(C(=O)C#C)C(=O)c2cccc(OC)c2)cc1C(=O)OC [58g]: 5.48
- C#CC(=O)Nc1cc(OC)c(OCCCN(C(=O)C#C)C(=O)Cc2ccc(F)cc2)cc1C(=O)OC [58l]: 5.85
- C#CC(=O)Nc1ccc(O)c(C(=O)O)c1 [C14, 2-hydroxy-5-propiolamidobenzoic acid]: 4.25
- C#CC(=O)Nc1cc(OC)c(OCCCN(C(=O)C#C)C(=O)c2cnco2)cc1C(=O)OC [58v]: 6.52
- C#CC(=O)Nc1cc(OC)c(OCCCN(C(=O)C#C)C(=O)Cc2cccc(OC)c2)cc1C(=O)OC [58n]: 5.85

Shifting focus to the compound that follows.
Which measured pIC50 belongs to C#CC(=O)Nc1cc(OC)c(OCCCN2C(=O)c3ccccc3C2=O)cc1C(=O)OC [50b] , tested on PDIA4 (Homo sapiens, UniProt P13667)? 5.37

---

Protein target, amino acids: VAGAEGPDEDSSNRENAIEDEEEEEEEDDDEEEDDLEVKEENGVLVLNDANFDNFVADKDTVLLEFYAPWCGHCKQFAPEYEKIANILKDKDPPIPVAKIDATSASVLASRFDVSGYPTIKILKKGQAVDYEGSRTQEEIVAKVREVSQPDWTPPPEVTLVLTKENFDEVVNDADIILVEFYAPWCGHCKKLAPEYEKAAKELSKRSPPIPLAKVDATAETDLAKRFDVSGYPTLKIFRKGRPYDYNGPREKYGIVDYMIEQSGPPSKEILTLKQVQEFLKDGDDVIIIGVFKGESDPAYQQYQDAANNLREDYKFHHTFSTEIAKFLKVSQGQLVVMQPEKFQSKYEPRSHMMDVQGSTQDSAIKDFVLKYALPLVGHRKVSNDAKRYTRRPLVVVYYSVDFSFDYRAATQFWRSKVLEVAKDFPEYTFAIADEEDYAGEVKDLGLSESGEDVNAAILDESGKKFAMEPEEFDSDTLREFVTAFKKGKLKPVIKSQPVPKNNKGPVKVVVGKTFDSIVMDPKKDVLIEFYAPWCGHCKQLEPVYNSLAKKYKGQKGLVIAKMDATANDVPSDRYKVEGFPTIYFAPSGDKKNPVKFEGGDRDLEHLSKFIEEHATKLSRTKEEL
# Lookup of reported IC50 keyed by entry
Enter your answer as a number in µM; do not include the unit.

• C#CC(=O)Nc1cc(OC)c(OCCCN(C(=O)C#C)C(=O)c2ccc(F)cc2)cc1C(=O)OC [58d] = 2.4
• C#CC(=O)Nc1cc(OC)c(OCCCN(C(=O)C#C)C(=O)Cc2cccc(C(F)(F)F)c2)cc1C(=O)OC [58t] = 0.8

Form field: reported IC50 of CC#CC#CC#CC#CCCC(CO)O[C@@H]1O[C@H](CO)[C@@H](O)[C@H](O)[C@H]1O (some centres unmarked) [CPD P1, cytopiloyne, reference compound] 210

Thanks! And `C#CC(=O)Nc1ccc(CC(=O)O)cc1` ? 92.1

---

- Assay overview: Cell viability test (WST-1) in Min6 cells
- Assay type: cell-based, mouse
- Run parameters: mouse, read-out: CC50 values
Measure: CC50 at 24 h

Some entries whose results are on file:
• C#CC(=O)Nc1cc(OC)c(OCCCN(C(=O)C#C)C(=O)Cc2ccccc2C(F)(F)F)cc1C(=O)OC [58s] = > 100 µM
• C#CC(=O)Nc1cc(OC)c(OCCCN(C(=O)C#C)C(=O)Cc2cccc(C(F)(F)F)c2)cc1C(=O)OC [58t] = 64.9 µM
• CC#CC#CC#CC#CCCC(CO)O[C@@H]1O[C@H](CO)[C@@H](O)[C@H](O)[C@H]1O (some centres unmarked) [CPD P1, cytopiloyne, reference compound] = > 100 µM
• C#CC(=O)Nc1cc(OC)c(OC)cc1C(=O)O = > 100 µM

Moving on to another compound below.
If you can, please state the reported CC50 at 24 h value of C#CC(=O)Nc1cc(OC)c(OCCCN(C(=O)C#C)C(=O)c2cnco2)cc1C(=O)OC [58v] . > 100 µM

---

Record: pIC50 reported on PDIA4 (Homo sapiens).
Units for pIC50: none; it is -log10 of a concentration expressed in mol/L.

// returns reported pIC50 for input CC#CC#C/C=C1\C=CC2(OC=CC2OC(=O)C=C(C)C)O1 (centres unmarked) 3.12

// same read-out, input: `C#CC(=O)Nc1cc(OC)c(OCCCN(C(=O)C#C)C(=O)c2ccccc2)cc1C(=O)O` 5.41

C#CC(=O)Nc1cc(OC)c(OCCCN(C(=O)C#C)C(=O)Cc2ccccc2)cc1C(=O)OC [58i] ? 5.72

Item: `C#CC(=O)OC(=O)c1cc(OCCC)c(OC)cc1N` 6.00

---

- System: Min6 cells
- Assay overview: Glucose-stimulated insulin secretion in Min6 cells (insulin ELISA)
- Assay type: cell-based, mouse
- Run parameters: Mus musculus, 0.5 h; Table 5; insulin secretion, Min6 cells, high glucose (16.7 mM), 30 min; read-out: EC50
Measure: EC50 (µM)
Quick reminder: number only, in µM, skip the unit.

Would you please look over these solved cases?
* C#CC(=O)Nc1cc(OC)c(OC)cc1C(=O)O [CPD 8, 4,5-dimethoxy-2-propiolamidobenzoic acid] | 0.06
* C#CC(=O)Nc1cc(OC)c(OCCCN(C(=O)C#C)C(=O)Cc2ccccc2C(F)(F)F)cc1C(=O)OC [58s] | 0.02
* CC#CC#CC#CC#CCCC(CO)O[C@@H]1O[C@H](CO)[C@@H](O)[C@H](O)[C@H]1O (some centres unmarked) [CPD P1, cytopiloyne, reference compound] | 1.55
* C#CC(=O)Nc1cc(OC)c(OCCCN(C(=O)C#C)C(=O)c2cnco2)cc1C(=O)OC [58v] | 0.005

Look at this compound and give its reported EC50. C#CC(=O)Nc1cc(OC)c(OCCCN(C(=O)C#C)C(=O)Cc2cccc(C(F)(F)F)c2)cc1C(=O)OC [58t] 0.03

---

- System: Min6 cells
- Assay overview: Cell viability test (WST-1) in Min6 cells
- Format: cell-based, mouse
- Run parameters: Table 5, 24 h, WST-1, read-out: CC50
Measure: CC50 (µM)
Respond numerically; units are µM and should not be typed.

# returns recorded CC50 (system: Min6 cells) for COc1ccc(N2C(=O)/C(=C\c3ccc([N+](=O)[O-])s3)SC2=S)cc1 [CCF642, reference compound] 23.9

---

- Subject of test: PDIA4 (Homo sapiens)
- Sequence (P13667 21-645): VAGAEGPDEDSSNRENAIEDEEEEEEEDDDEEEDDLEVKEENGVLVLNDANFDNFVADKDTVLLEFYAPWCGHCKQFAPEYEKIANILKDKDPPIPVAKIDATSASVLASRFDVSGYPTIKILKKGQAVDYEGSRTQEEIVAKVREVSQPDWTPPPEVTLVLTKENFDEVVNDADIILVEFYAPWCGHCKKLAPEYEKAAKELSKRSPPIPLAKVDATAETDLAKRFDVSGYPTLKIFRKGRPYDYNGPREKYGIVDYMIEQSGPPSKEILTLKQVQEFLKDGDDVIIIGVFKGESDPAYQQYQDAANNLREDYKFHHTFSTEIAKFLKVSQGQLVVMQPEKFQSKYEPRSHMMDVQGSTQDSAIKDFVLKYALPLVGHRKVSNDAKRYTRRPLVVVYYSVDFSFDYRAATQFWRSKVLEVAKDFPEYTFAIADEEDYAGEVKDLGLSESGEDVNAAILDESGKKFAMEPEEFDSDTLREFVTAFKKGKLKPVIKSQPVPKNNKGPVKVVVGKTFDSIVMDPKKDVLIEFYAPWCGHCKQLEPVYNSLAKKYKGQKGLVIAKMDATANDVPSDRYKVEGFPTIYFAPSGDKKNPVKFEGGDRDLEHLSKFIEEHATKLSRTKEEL
pIC50: −log10 of the molar value.
Threshold rule: pIC50 greater than or equal to 5 is Fulfilled; below that, Not fulfilled.

• C#CC(=O)Nc1cc(OC)c(OCCCN(C(=O)C#C)C(=O)Cc2ccc(OC)cc2)cc1C(=O)OC [58o] = Fulfilled

Threshold query (pIC50 >= 5) on COC(=O)c1cc(OC)c(OC)c(OC)c1N [compound 19, methyl 2-amino-3,4,5-trimethoxybenzoate] Not fulfilled

Request: C#CC(=O)Nc1cc(OC)c(OCCCN(C(=O)C#C)C(=O)Cc2cccc(Cl)c2)cc1C(=O)OC [58r] Fulfilled

Another molecule to check: `O=C(Cc1ccccc1)OCC#CC#CCOC(=O)Cc1ccccc1` Not fulfilled

Input C#CC(=O)Nc1cc(OC)c(OCCCN(C(=O)C#C)C(=O)c2ccccc2F)cc1C(=O)OC [58b] Fulfilled

And `C#CC(=O)OC(=O)c1cc(OC)c(OC)c(OC)c1N` ? Fulfilled

And the next one, `C#CC(=O)Nc1cc(OCCC)c(OCCC)cc1C(=O)OCCC` ? Not fulfilled

Next molecule: `C#CC(=O)Nc1ccc(C(=O)NCC(=O)O)cc1` Not fulfilled
